biological target: human mGluR4 (Homo sapiens, UniProt Q14833); experiment: human mGluR4 potentiation assay, CHO cells, Fluo-4 calcium fluorescence, agonist EC20; conditions: potentiation of human mGluR4 response to EC20 agonist; read-out: hEC50
Sequence (Q14833 33-912): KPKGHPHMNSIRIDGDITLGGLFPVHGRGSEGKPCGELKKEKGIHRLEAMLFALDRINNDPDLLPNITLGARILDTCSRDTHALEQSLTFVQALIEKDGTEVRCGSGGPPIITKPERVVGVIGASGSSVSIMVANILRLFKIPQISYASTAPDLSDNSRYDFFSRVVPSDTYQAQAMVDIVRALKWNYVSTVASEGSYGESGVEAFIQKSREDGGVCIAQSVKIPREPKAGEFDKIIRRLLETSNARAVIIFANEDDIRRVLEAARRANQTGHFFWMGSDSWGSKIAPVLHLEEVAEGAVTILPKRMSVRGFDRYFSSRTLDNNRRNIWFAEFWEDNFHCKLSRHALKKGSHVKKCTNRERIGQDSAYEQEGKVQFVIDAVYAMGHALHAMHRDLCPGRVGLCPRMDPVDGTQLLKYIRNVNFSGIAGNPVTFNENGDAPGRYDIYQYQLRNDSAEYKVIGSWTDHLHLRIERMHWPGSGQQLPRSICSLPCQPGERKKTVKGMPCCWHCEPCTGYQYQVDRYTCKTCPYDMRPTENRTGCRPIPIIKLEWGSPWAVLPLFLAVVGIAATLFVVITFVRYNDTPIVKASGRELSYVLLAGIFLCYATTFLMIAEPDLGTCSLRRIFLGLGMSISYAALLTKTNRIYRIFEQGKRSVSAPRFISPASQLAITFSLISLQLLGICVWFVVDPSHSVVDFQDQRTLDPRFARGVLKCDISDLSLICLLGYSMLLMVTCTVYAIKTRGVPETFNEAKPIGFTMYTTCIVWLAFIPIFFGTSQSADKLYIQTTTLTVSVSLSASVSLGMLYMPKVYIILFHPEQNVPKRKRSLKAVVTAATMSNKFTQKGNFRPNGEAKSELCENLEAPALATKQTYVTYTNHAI
Counter-ions that a name gives are not always drawn.
Consider the following compounds; for each one, report its EC50.
Supply the numeric figure in nM, leaving out any unit text.

Q: Fill in: EC50 of O=S(=O)(NC1CCCC1)c1ccc2[nH]c(-c3ccccc3)nc2c1 [Example 18, TFA salt] is ___
A: 11700

Q: // repeat for O=S(=O)(Nc1ccccc1Cl)c1ccc2[nH]c(-c3c(F)cccc3Cl)nc2c1 and report
A: 5750

Q: // repeat for O=S(=O)(Nc1ccccc1Cl)c1ccc2[nH]c(-c3cccnc3)nc2c1 and report
A: 5250

Q: // repeat for O=S(=O)(Nc1ccc(F)cc1F)c1ccc2[nH]c(-c3ccccc3)nc2c1 and report
A: 296

Q: // repeat for O=S(=O)(Nc1ccccc1F)c1ccc2[nH]c(-c3ccccc3)nc2c1 [Example 17, TFA salt] and report
A: 320

Q: // repeat for O=S(=O)(Nc1ccc(F)cc1F)c1ccc2[nH]c(-c3cccc(F)n3)nc2c1 and report
A: 140

Q: // repeat for O=S(=O)(Nc1ccccc1Cl)c1ccc2[nH]c(-c3ncc[nH]3)nc2c1 and report
A: 12800

Q: // repeat for O=S(=O)(Nc1ccccc1F)c1ccc2[nH]c(-c3ccncn3)nc2c1 and report
A: 4820

Q: // repeat for O=S(=O)(Nc1ccccc1Cl)c1ccc2[nH]c(-c3ccccc3)nc2c1 [Example 2, TFA salt] and report
A: 353

Q: // repeat for O=S(=O)(Nc1ccccc1Cl)c1ccc2[nH]c(-c3cccc(Cl)n3)nc2c1 and report
A: 116

Q: // repeat for O=S(=O)(Nc1ccccc1F)c1ccc2[nH]c(-c3ccsc3)nc2c1 and report
A: 369

Q: // repeat for O=S(=O)(Nc1ccccc1F)c1ccc2[nH]c(-c3cnccn3)nc2c1 and report
A: 5490

Q: // repeat for O=S(=O)(Nc1ccccc1Cl)c1ccc2[nH]c(-c3cccs3)nc2c1 [Example 9, TFA salt] and report
A: 318

Q: // repeat for O=S(=O)(Nc1ccccc1Cl)c1ccc2[nH]c(-c3ccco3)nc2c1 and report
A: 747

Q: // repeat for O=S(=O)(Nc1ccc(F)cc1F)c1ccc2[nH]c(-c3ccsc3)nc2c1 and report
A: 226

Q: // repeat for O=S(=O)(Nc1ccccc1Cl)c1ccc2[nH]c(-c3ccccc3F)nc2c1 and report
A: 988

Q: // repeat for O=S(=O)(Nc1ccccc1Cl)c1ccc2[nH]c(-c3ccncn3)nc2c1 and report
A: 2830

Cited source: patent US20120184556A1
